- System: P388 leukemia ip, CD2F1 mice, survival T/C
- test_name: NCI In Vivo Anticancer Drug Screen. Data for tumor model P388 Leukemia (intraperitoneal) in CD2F1 (CDF1) mice
- protocol_conditions: endpoint: median survival time; dose: 50.0 mg/kg/injection; schedule: Q01DX009 (ip); vehicle: saline with Tween-80; higher = longer survival
Inconclusive results and toxic doses are left out.
attribute_measured: T/C

Answered examples (3):
| molecule | T/C |
| --- | --- |
| O=[N+]([O-])c1cc(Cl)ccc1Cl | 100 % of control |
| O=C(O)c1cccc(C(=O)O)c1O | 100 % of control |
| CC1(C)CC2(OC2c2ccc([N+](=O)[O-])cc2)C(=O)c2ccccc21 (configuration not stated) | 100 % of control |

Quick one: give me T/C for each item below, same order please.
1. CCOC(=O)c1cc2nc3ccccn3c(=O)c2cc1N
2. O=c1c(Cl)c2oc3ccc([N+](=O)[O-])cc3nc-2c(Cl)c1Cl
3. c1ccc2c(c1)Nc1ccc3ccccc3c1S2
4. [B-][N+](C)(C)Cc1ccccc1
5. O=C(O)c1cc(C(=O)CC(=O)c2cc(C(=O)O)c(O)c3ccccc23)c2ccccc2c1O
6. CN(C(=S)Nc1ccccc1)c1nnn(C)n1
7. O=C1CC2(C(=O)N1)c1ccccc1-c1ccccc12

1: 92 % of control; 2: 109 % of control; 3: 105 % of control; 4: 109 % of control; 5: 94 % of control; 6: 98 % of control; 7: 96 % of control

Respectfully, I request T/C for each entry included below.
1. NC(CO)C(O)c1ccc(N=Nc2ccc(O)cc2)cc1 (configuration not stated)
2. O=C(Nc1ccc(F)cc1)N1c2ccccc2SC12CCCC2

["100 % of control", "91 % of control"]
